- Tested on: HeLa Kyoto
- PROCEDURE DETAILS: melting temperature (median over replicates), in situ; higher = more thermally stable
- TEST CONDITIONS: cell cycle stage: G1/S
MEASUREMENT LABEL: melting temperature (°C)
Hi! Could you send only the number? It should be in °C, unit omitted.

QUERY: // lookup melting temperature | system=HeLa Kyoto | key= MGEIKVSPDYNWFRGTVPLKKIIVDDDDSKIWSLYDAGPRSIRCPLIFLPPVSGTADVFFRQILALTGWGYRVIALQYPVYWDHLEFCDGFRKLLDHLQLDKVHLFGASLGGFLAQKFAEYTHKSPRVHSLILCNSFSDTSIFNQTWTANSFWLMPAFMLKKIVLGNFSSGPVDPMMADAIDFMVDRLESLGQSELASRLTLNCQNSYVEPHKIRDIPVTIMDVFDQSALSTEAKEEMYKLYPNARRAHLKTGGNFPYLCRSAEVNLYVQIHLLQFHGTKYAAIDPSMVSAEELEVQKGSLGISQEEQ [SPG21]
RESULT: 49.5

QUERY: // lookup melting temperature | system=HeLa Kyoto | key= MAQAKINAKANEGRFCRSSSMADRSSRLLESLDQLELRVEALREAATAVEQEKEILLEMIHSIQNSQDMRQISDGEREELNLTANRLMGRTLTVEVSVETIRNPQQQESLKHATRIIDEVVNKFLDDLGNAKSHLMSLYSACSSEVPHGPVDQKFQSIVIGCALEDQKKIKRRLETLLRNIENSDKAIKLLEHSKGAGSKTLQQNAESRFN [BAG2]
RESULT: 50.9

====

- Tested on: HeLa Kyoto
- PROCEDURE DETAILS: solubility change mitosis vs G1/S (difference of NP-40 vs SDS log2 ratios) (log2 ratio difference); higher = more soluble in mitosis
Kindly supply the reported solubility change mitosis (log2) values for the records listed here.
Response field accepts a number only; no unit should be typed.

QUERY: // lookup solubility change mitosis (log2) | system=HeLa Kyoto | key= MTSVTRSEIIDEKGPVMSKTHDHQLESSLSPVEVFAKTSASLEMNQGVSEERIHLGSSPKKGGNCDLSHQERLQSKSLHLSPQEQSASYQDRRQSWRRASMKETNRRKSLHPIHQGITELSRSISVDLAESKRLGCLLLSSFQFSIQKLEPFLRDTKGFSLESFRAKASSLSEELKHFADGLETDGTLQKCFEDSNGKASDFSLEASVAEMKEYITKFSLERQTWDQLLLHYQQEAKEILSRGSTEAKITEVKVEPMTYLGSSQNEVLNTKPDYQKILQNQSKVFDCMELVMDELQGSVKQLQAFMDESTQCFQKVSVQLGKRSMQQLDPSPARKLLKLQLQNPPAIHGSGSGSCQ [DSN1]
RESULT: -0.12

QUERY: // lookup solubility change mitosis (log2) | system=HeLa Kyoto | key= MDNRFATAFVIACVLSLISTIYMAASIGTDFWYEYRSPVQENSSDLNKSIWDEFISDEADEKTYNDALFRYNGTVGLWRRCITIPKNMHWYSPPERTESFDVVTKCVSFTLTEQFMEKFVDPGNHNSGIDLLRTYLWRCQFLLPFVSLGLMCFGALIGLCACICRSLYPTIATGILHLLAGLCTLGSVSCYVAGIELLHQKLELPDNVSGEFGWSFCLACVSAPLQFMASALFIWAAHTNRKEYTLMKAYRVA [CLDND1]
RESULT: 0.186
